B1: VH:VL chains; a variant is named by its letters at X, in order (parent)
chain 1: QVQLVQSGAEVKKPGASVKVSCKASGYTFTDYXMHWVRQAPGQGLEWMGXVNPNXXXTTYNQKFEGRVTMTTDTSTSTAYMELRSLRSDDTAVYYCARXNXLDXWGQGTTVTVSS
chain 2: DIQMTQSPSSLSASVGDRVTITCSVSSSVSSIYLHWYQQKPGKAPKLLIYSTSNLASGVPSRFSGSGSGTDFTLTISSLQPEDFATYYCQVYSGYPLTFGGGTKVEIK

Variants of: B1
assay_explanation: yeast display scFab, FACS + sequencing
assay_readout: non-specific binding call

Check out these entries, answers already filled in.
YRRRGFAV
binds
AARADDAA
no binding
SEEASDGA
no binding
SRGRGVGA
binds
VRAGGDSF
no binding

Query: Which non-specific binding call is listed for SETTDSLD ?
Result: no binding

Query: Which non-specific binding call is listed for SKGRGALA ?
Result: binds
